Recorded values, source patent US6916905B2.

Biological target: δ receptors (Mus musculus)
Sequence (P32300 whole entry): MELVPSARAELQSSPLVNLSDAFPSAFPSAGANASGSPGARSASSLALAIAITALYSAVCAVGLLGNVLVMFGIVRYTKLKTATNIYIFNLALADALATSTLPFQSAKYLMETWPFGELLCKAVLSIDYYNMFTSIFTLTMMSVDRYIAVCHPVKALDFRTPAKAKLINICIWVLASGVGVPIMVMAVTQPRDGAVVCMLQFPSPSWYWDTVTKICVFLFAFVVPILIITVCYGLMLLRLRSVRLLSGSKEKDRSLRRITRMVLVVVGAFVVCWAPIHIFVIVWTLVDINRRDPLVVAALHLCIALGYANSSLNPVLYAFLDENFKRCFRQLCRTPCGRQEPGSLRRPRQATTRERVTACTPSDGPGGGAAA
Conditions: δ antagonism; Ke = antilog of pA2
Non-standard residues stand in square brackets, D forms with d. Residues, ends and D or L forms follow the SMILES beside them. Dmt = Cc1cc(O)cc(C)c1C[C@H](N)C(=O)O; Tic = O=C(O)[C@@H]1Cc2ccccc2CN1
Below, each of the molecules is paired with its reported MVD Ke value.
Lab book: enter the figure in nM, no units written.

Reference set, count: 4
molecule	MVD Ke [nM]
Cc1cc(O)cc(C)c1C[C@@H](C(=O)N1Cc2ccccc2C[C@H]1C(=O)NC12CC3CC(CC(C3)C1)C2)N(C)C [Compound 15, N,N(Me)2-Dmt-Tic-NH-1-adamantane]	0.87
Cc1cc(O)cc(C)c1C[C@H](N)C(=O)N1Cc2ccccc2C[C@H]1C(=O)N[C@@H](C)C(=O)O [H-Dmt-Tic-Ala-OH, reference compound] (H-[Dmt]-[Tic]-Ala-OH)	4.0
Cc1cc(O)cc(C)c1C[C@H](N)C(=O)N1Cc2ccccc2C[C@H]1C(=O)O [H-Dmt-Tic-OH, reference compound] (H-[Dmt]-[Tic]-OH)	5.7
Cc1cc(O)cc(C)c1C[C@@H](C(=O)N1Cc2ccccc2C[C@H]1C(=O)O)N1CCCCC1 [Compound 3, [des-NH2-α-piperidine-1-yl]-Dmt-Tic-OH]	49

As a next step, examine the molecule that follows.
Input: Need MVD Ke of Cc1cc(O)cc(C)c1C[C@@H](C(=O)N1Cc2ccccc2C[C@H]1C(=O)O)N1CCCC1 [Compound 4, [des-NH2-α-pyrrolidine-1-yl]-Dmt-Tic-OH] , thanks.
Output: 121
